Value source: patent US20240262835A1

Please provide measured CLint (hep) C for the entries that follow.
Tested on: cryopreserved hepatocytes
protocol_text: Hepatic metabolic stability (HMS) assay, cynomolgus monkey hepatocytes
condition_info: cynomolgus monkey, hepatocytes
Enter your answer as a number in μL/min/10^6; do not include the unit.

Q: Can you share its CLint (hep) C? I mean this compound: CN(C(=O)c1cc2c(cn1)nc(N)c1cncn12)C1CC(F)(F)c2cc(C(F)(F)F)ccc21 (stereo not shown)
Ans: 10.5

Q: Need CLint (hep) C of CN(C(=O)c1cc2c(cn1)nc(N)c1cncn12)C1COc2cc(C(F)(F)F)ccc21 (stereo not shown) [Compound 19] , thanks.
Ans: 6.5

Q: Returns the measured CLint (hep) C for the input compound. Input: O=c1ccc2ccc(O)cc2o1 [Ref. 2, 7-Hydroxycoumarin, reference compound]
Ans: 655.8
